test system: rhinovirus type 8 (RV-8); test: Tissue culture antiviral test (HeLa cells), RV-8; format: cell-based; conditions: Enterovirus, 48 and 72 hours post-treatment, read-out: Lowest concentration necessary to cause a 50 percent reduction in cytopathic effect, RV-8
measured.parameter: EC50

[[record]]
substance_smiles = "CS(=O)(=O)c1ccc(Oc2ccc(C#N)cc2)cc1"
target_or_test_system = "rhinovirus type 8 (RV-8)"
experimental_result = "25 µg/mL"

[[record]]
substance_smiles = "CCN(CC)S(=O)(=O)c1ccc(Oc2ccc(S(=O)(=O)C(F)(F)F)cc2)cc1"
target_or_test_system = "rhinovirus type 8 (RV-8)"
experimental_result = "≤ 0.312 µg/mL"

[[record]]
substance_smiles = "CS(=O)(=O)c1ccc(Oc2ccc(Cl)c(Cl)c2)cc1"
target_or_test_system = "rhinovirus type 8 (RV-8)"
experimental_result = "~50 µg/mL"

[[record]]
substance_smiles = "CS(=O)(=O)c1ccc(Oc2ccc(Br)cc2)cc1"
target_or_test_system = "rhinovirus type 8 (RV-8)"
experimental_result = "12.5 µg/mL"

[[record]]
substance_smiles = "CC(=O)c1ccc(Oc2ccc(S(C)(=O)=O)cc2)cc1"
target_or_test_system = "rhinovirus type 8 (RV-8)"
experimental_result = "25 µg/mL"

[[record]]
substance_smiles = "CS(=O)(=O)c1ccc(Oc2ccc(OCC#N)cc2)cc1"
target_or_test_system = "rhinovirus type 8 (RV-8)"
experimental_result = "5 µg/mL"

[[record]]
substance_smiles = "CS(=O)(=O)c1ccc(Oc2ccc(Cc3ccccc3)cc2)cc1"
target_or_test_system = "rhinovirus type 8 (RV-8)"
experimental_result = "5 µg/mL"


These measurements were taken from patent US4505929A.
